- assay.system: EGFR (epidermal growth factor receptor) on cells (human, UniProt P00533 25-1210)
- test: cell-based or functional assay
assay.metric: IC50, inhibition of EGF-stimulated EGFR phosphorylation (Tyr1173) in NCI-H292
Respond with a number, then the unit of measure.

In the examples that follow, each entry is paired with its recorded IC50, inhibition of EGF-stimulated EGFR phosphorylation (Tyr1173) in NCI-H292.
{"binder": "ECB147v3-PEG24 (designed binder, PEG24-maleimide on the engineered cysteines) LPAPKNLVVSEVTEDSARLSWDDPWAFYESFLIQYQESEKVGEAIVLTVPGSERSYDLTGLCPGTEYTVSIYGVHNVYKDTNMRGLPLSAIFTTAPCPAPAPAPLPAPKNLVVSRVTEDSARLSWTAPDAAFDSFWIRYFEFLGSGEAIVLTVPGSERSYDLTGLCPGTEYVVNIMSVKGGSISPPLSAIFTTAPCPAPAPAPLAEAKVLANRELDKYGVSDYYKNLINNAKTVEGVKALLDEILAALP", "result": "1.6 nM"}
{"binder": "ECB147v5-PEG24 (designed binder, PEG24-maleimide on the engineered cysteines) LPAPKNLVVSEVTEDSARLSWDDPWAFYESFLIQYQESEKVGEAIVLTVPGSERSYDLTGLCPGTEYTVSIYGVHNVYKDTNMRGLPLSAIFTTAPAPAPAPAPLPAPKNLVVSRVTEDSARLSWTAPDAAFDSFWIRYFEFLGSGEAIVLTVPGSERSYDLTGLCPGTEYVVNIMSVKGGSISPPLSAIFTTAPAPAPAPAPLAEAKVLANRELDKYGVSDYYKNLINNAKTVEGVKALLDEILAALP", "result": "0.9 nM"}

Lab note: each binder below needs its IC50, inhibition of EGF-stimulated EGFR phosphorylation (Tyr1173) in NCI-H292 filled in.
1. ECB147v7-PEG24 (designed binder, PEG24-maleimide on the engineered cysteines) LPAPKNLVVSEVTEDSARLSWDDPWAFYESFLIQYQESEKVGEAIVLTVPGSERSYDLTGLKPGTEYTVSIYGVHNVYKDTNMRGLPLSAIFTTAPCPAPAPAPLPAPKNLVVSRVTEDSARLSWTAPDAAFDSFWIRYFEFLGSGEAIVLTVPGSERSYDLTGLKPGTEYVVNIMSVKGGSISPPLSAIFTTAPCPAPAPAPLAEAKVLANRELDKYGVSDYYKNLINNAKTVEGVKALLDEILAALP
2. ECB147v6-PEG24 (designed binder, PEG24-maleimide on the engineered cysteine) LPAPKNLVVSEVTEDSARLSWDDPWAFYESFLIQYQESEKVGEAIVLTVPGSERSYDLTGLCPGTEYTVSIYGVHNVYKDTNMRGLPLSAIFTTAPAPAPAPAPLPAPKNLVVSRVTEDSARLSWTAPDAAFDSFWIRYFEFLGSGEAIVLTVPGSERSYDLTGLKPGTEYVVNIMSVKGGSISPPLSAIFTTAPAPAPAPAPLAEAKVLANRELDKYGVSDYYKNLINNAKTVEGVKALLDEILAALP

["1.4 nM", "1.4 nM"]
